Test system: LCLC-103H
Assay procedure: relative viability (nuclei count vs DMSO), 5 days (fraction); higher = more cells survive
Assay setup: first compound 0.03162 µM
Measured quantity: relative viability
Respond numerically, and do not add a unit to the figure.

compound="NC(=O)Nc1cc(-c2cccc(F)c2)sc1C(=O)N[C@H]1CCCNC1 [AZD7762] + Cc1cc(Nc2cc(N3CCN(C)CC3)nc(Sc3ccc(NC(=O)C4CC4)cc3)n2)n[nH]1 [Tozasertib] (partner 0.1 µM)" measured_quantity="relative viability" numeric_result=0.442
compound="NC(=O)Nc1cc(-c2cccc(F)c2)sc1C(=O)N[C@H]1CCCNC1 [AZD7762] + CC(=O)Nc1cccc(-n2c(=O)n(C3CC3)c(=O)c3c(Nc4ccc(I)cc4F)n(C)c(=O)c(C)c32)c1 [Trametinib] (partner 0.02 µM)" measured_quantity="relative viability" numeric_result=0.674
compound="NC(=O)Nc1cc(-c2cccc(F)c2)sc1C(=O)N[C@H]1CCCNC1 [AZD7762] + CS(=O)(=O)N1CCN(Cc2cc3nc(-c4cccc5[nH]ncc45)nc(N4CCOCC4)c3s2)CC1 [Pictilisib] (partner 1 µM)" measured_quantity="relative viability" numeric_result=0.609

Consider the additional compound presented here.
Challenge: What does the record list as relative viability for NC(=O)Nc1cc(-c2cccc(F)c2)sc1C(=O)N[C@H]1CCCNC1 [AZD7762] + CC(C)C[C@H](NC(=O)[C@H](Cc1ccccc1)NC(=O)c1cnccn1)B(O)O [Bortezomib] (partner 0.002 µM) ?
Response given: 1.08

---

Collected relative viability values appear next to each entry.
Test system: NCI-H647
Assay procedure: relative viability (nuclei count vs DMSO), 5 days (fraction); higher = more cells survive
Assay setup: first compound 0.08 µM

Reference set, count: 8
compound="Oc1nc(-c2ccc(C(F)(F)F)cc2)nc2c1CSCC2 [XAV939] + Cc1cc(Nc2cc(N3CCN(C)CC3)nc(Sc3ccc(NC(=O)C4CC4)cc3)n2)n[nH]1 [Tozasertib] (partner 0.1 µM)" result=0.288
compound="C=C1C(=O)O[C@@H](CCCCCCCC)[C@@H]1C(=O)O [C-75] + C[C@@H](Oc1cc(-c2cnn(C3CCNCC3)c2)cnc1N)c1c(Cl)ccc(F)c1Cl [Crizotinib] (partner 1 µM)" result=1.06
compound="Oc1nc(-c2ccc(C(F)(F)F)cc2)nc2c1CSCC2 [XAV939] + Cc1nc(NC(=O)N2CCC[C@H]2C(N)=O)sc1-c1ccnc(C(C)(C)C(F)(F)F)c1 [Alpelisib] (partner 2 µM)" result=1.25
compound="Oc1nc(-c2ccc(C(F)(F)F)cc2)nc2c1CSCC2 [XAV939] + CCNC(=O)c1noc(-c2cc(C(C)C)c(O)cc2O)c1-c1ccc(CN2CCOCC2)cc1 [Luminespib] (partner 0.01 µM)" result=0.252
compound="Oc1nc(-c2ccc(C(F)(F)F)cc2)nc2c1CSCC2 [XAV939] + Cc1nc(Nc2ncc(C(=O)Nc3c(C)cccc3Cl)s2)cc(N2CCN(CCO)CC2)n1 [Dasatinib] (partner 0.075 µM)" result=0.164
compound="Oc1nc(-c2ccc(C(F)(F)F)cc2)nc2c1CSCC2 [XAV939] + CS(=O)(=O)CCNCc1ccc(-c2ccc3ncnc(Nc4ccc(OCc5cccc(F)c5)c(Cl)c4)c3c2)o1 [Lapatinib] (partner 2 µM)" result=0.91
compound="Oc1nc(-c2ccc(C(F)(F)F)cc2)nc2c1CSCC2 [XAV939] + N=C(N)NC(=N)NCCc1ccccc1 [Phenformin] (partner 250 µM)" result=0.553
compound="Oc1nc(-c2ccc(C(F)(F)F)cc2)nc2c1CSCC2 [XAV939] + O=C(CCCCCCC(=O)Nc1ccccc1)NO [Vorinostat] (partner 1 µM)" result=0.581

Challenge: What does the record list as relative viability for C=C1C(=O)O[C@@H](CCCCCCCC)[C@@H]1C(=O)O [C-75] + CC1(C)CCC(c2ccc(Cl)cc2)=C(CN2CCN(c3ccc(C(=O)NS(=O)(=O)c4ccc(N[C@H](CCN5CCOCC5)CSc5ccccc5)c(S(=O)(=O)C(F)(F)F)c4)cc3)CC2)C1 [Navitoclax] (partner 0.5 µM) ?
Response given: 1.12

Challenge: Try this compound too: C=C1C(=O)O[C@@H](CCCCCCCC)[C@@H]1C(=O)O [C-75] + CC(=O)c1c(C)c2cnc(Nc3ccc(N4CCNCC4)cn3)nc2n(C2CCCC2)c1=O [Palbociclib] (partner 0.5 µM)
Response given: 0.312

---

Test system: IA-LM
Assay procedure: relative viability (nuclei count vs DMSO), 5 days (fraction); higher = more cells survive
Assay setup: first compound 0.1581 µM
Collected relative viability values appear next to each entry.
Respond numerically, and do not add a unit to the figure.

Reference set, count: 3
compound="CC1(C)CCC(c2ccc(Cl)cc2)=C(CN2CCN(c3ccc(C(=O)NS(=O)(=O)c4ccc(N[C@H](CCN5CCOCC5)CSc5ccccc5)c(S(=O)(=O)C(F)(F)F)c4)cc3)CC2)C1 [Navitoclax] + CS(=O)(=O)CCNCc1ccc(-c2ccc3ncnc(Nc4ccc(OCc5cccc(F)c5)c(Cl)c4)c3c2)o1 [Lapatinib] (partner 2 µM)" tested_target=IA-LM measured_quantity="relative viability" numeric_result=1.02
compound="CC1(C)CCC(c2ccc(Cl)cc2)=C(CN2CCN(c3ccc(C(=O)NS(=O)(=O)c4ccc(N[C@H](CCN5CCOCC5)CSc5ccccc5)c(S(=O)(=O)C(F)(F)F)c4)cc3)CC2)C1 [Navitoclax] + O=C(c1cc(Cc2n[nH]c(=O)c3ccccc23)ccc1F)N1CCN(C(=O)C2CC2)CC1 [Olaparib] (partner 8 µM)" tested_target=IA-LM measured_quantity="relative viability" numeric_result=0.789
compound="CC1(C)CCC(c2ccc(Cl)cc2)=C(CN2CCN(c3ccc(C(=O)NS(=O)(=O)c4ccc(N[C@H](CCN5CCOCC5)CSc5ccccc5)c(S(=O)(=O)C(F)(F)F)c4)cc3)CC2)C1 [Navitoclax] + C[C@]1(O)C[C@@H](c2nc(-c3ccc4ccc(-c5ccccc5)nc4c3)c3c(N)nccn32)C1 [Linsitinib] (partner 1 µM)" tested_target=IA-LM measured_quantity="relative viability" numeric_result=0.587

Consider the additional compound presented here.
Challenge: What does the record list as relative viability for CC1(C)CCC(c2ccc(Cl)cc2)=C(CN2CCN(c3ccc(C(=O)NS(=O)(=O)c4ccc(N[C@H](CCN5CCOCC5)CSc5ccccc5)c(S(=O)(=O)C(F)(F)F)c4)cc3)CC2)C1 [Navitoclax] + CC(C)C[C@H](NC(=O)[C@H](Cc1ccccc1)NC(=O)c1cnccn1)B(O)O [Bortezomib] (partner 0.002 µM) ?
Response given: 0.896

---

Collected relative viability values appear next to each entry.
Tested on: NCI-H3122
Assay procedure: relative viability (nuclei count vs DMSO), 5 days (fraction); higher = more cells survive
Assay setup: first compound 0.01581 µM
Respond numerically, and do not add a unit to the figure.

compound="CC1(C)CCC(c2ccc(Cl)cc2)=C(CN2CCN(c3ccc(C(=O)NS(=O)(=O)c4ccc(N[C@H](CCN5CCOCC5)CSc5ccccc5)c(S(=O)(=O)C(F)(F)F)c4)cc3)CC2)C1 [Navitoclax] + Cc1nc(NC(=O)N2CCC[C@H]2C(N)=O)sc1-c1ccnc(C(C)(C)C(F)(F)F)c1 [Alpelisib] (partner 2 µM)" measured_quantity="relative viability" numeric_result=0.8
compound="CC1(C)CCC(c2ccc(Cl)cc2)=C(CN2CCN(c3ccc(C(=O)NS(=O)(=O)c4ccc(N[C@H](CCN5CCOCC5)CSc5ccccc5)c(S(=O)(=O)C(F)(F)F)c4)cc3)CC2)C1 [Navitoclax] + COc1cc2c(Oc3ccc(NC(=O)C4(C(=O)Nc5ccc(F)cc5)CC4)cc3F)ccnc2cc1OCCCN1CCOCC1 [Foretinib] (partner 0.25 µM)" measured_quantity="relative viability" numeric_result=1.04
compound="CC1(C)CCC(c2ccc(Cl)cc2)=C(CN2CCN(c3ccc(C(=O)NS(=O)(=O)c4ccc(N[C@H](CCN5CCOCC5)CSc5ccccc5)c(S(=O)(=O)C(F)(F)F)c4)cc3)CC2)C1 [Navitoclax] + C[C@@H](Oc1cc(-c2cnn(C3CCNCC3)c2)cnc1N)c1c(Cl)ccc(F)c1Cl [Crizotinib] (partner 1 µM)" measured_quantity="relative viability" numeric_result=0.308

Consider the additional compound presented here.
Challenge: What does the record list as relative viability for CC1(C)CCC(c2ccc(Cl)cc2)=C(CN2CCN(c3ccc(C(=O)NS(=O)(=O)c4ccc(N[C@H](CCN5CCOCC5)CSc5ccccc5)c(S(=O)(=O)C(F)(F)F)c4)cc3)CC2)C1 [Navitoclax] + COc1cccc2cc(-c3nc([C@H]4CC[C@H](C(=O)O)CC4)n4ncnc(N)c34)[nH]c12 [OSI-027] (partner 0.5 µM) ?
Response given: 0.949

---

Test system: ABC-1
Assay procedure: relative viability (nuclei count vs DMSO), 5 days (fraction); higher = more cells survive
Assay setup: first compound 0.005 µM
Measured quantity: relative viability
Respond numerically, and do not add a unit to the figure.

compound="CC1(C)CCC(c2ccc(Cl)cc2)=C(CN2CCN(c3ccc(C(=O)NS(=O)(=O)c4ccc(N[C@H](CCN5CCOCC5)CSc5ccccc5)c(S(=O)(=O)C(F)(F)F)c4)cc3)CC2)C1 [Navitoclax] + Cc1nc(NC(=O)N2CCC[C@H]2C(N)=O)sc1-c1ccnc(C(C)(C)C(F)(F)F)c1 [Alpelisib] (partner 2 µM)" measured_quantity="relative viability" numeric_result=1.14

Consider the additional compound presented here.
Challenge: What does the record list as relative viability for CC1(C)CCC(c2ccc(Cl)cc2)=C(CN2CCN(c3ccc(C(=O)NS(=O)(=O)c4ccc(N[C@H](CCN5CCOCC5)CSc5ccccc5)c(S(=O)(=O)C(F)(F)F)c4)cc3)CC2)C1 [Navitoclax] + C[C@@H](Oc1cc(-c2cnn(C3CCNCC3)c2)cnc1N)c1c(Cl)ccc(F)c1Cl [Crizotinib] (partner 1 µM) ?
Response given: 1.19
